Biological target: HIV-1 pseudovirus 263-8 (HIV-1)
Assay: cell-based or functional assay
ASSAY METRIC: IC50 (neutralization in TZM.bl cells) (µg/mL)
Please respond with the number in µg/mL and leave the unit unwritten.

Consider the binder shown here: MS-70 (antibody, V domains shown) VH: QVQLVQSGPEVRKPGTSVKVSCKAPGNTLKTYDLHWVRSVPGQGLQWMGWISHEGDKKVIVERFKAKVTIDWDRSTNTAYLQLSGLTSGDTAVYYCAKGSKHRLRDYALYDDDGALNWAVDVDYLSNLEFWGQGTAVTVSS VL: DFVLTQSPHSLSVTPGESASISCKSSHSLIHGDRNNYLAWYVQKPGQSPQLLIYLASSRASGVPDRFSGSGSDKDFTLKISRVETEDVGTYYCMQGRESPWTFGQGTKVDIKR What is its recorded IC50 (neutralization in TZM.bl cells)?
0.016
